Reference source for all entries: patent US20230278972A1

Tested on: ragweed (common ragweed, Ambrosia artemisiifolia)
TEST_NAME: Test A1 postemergence, ragweed
Assay type: in vivo
STUDY_CONDITIONS: Postemergence, 31 g ai/ha; 0 to 100 scale (0 no effect, 100 complete control); 10 days
So basically: is Plant response rating, Ragweed under 30? Then Condition met. Not under? Then Condition not met.

The examples below pair each entry with its known result.
Cc1c(NS(=O)(=O)C(F)(F)F)cc(C2=NOC3CCCC23)c(C)c1C (stereo not shown)	Condition not met
Cc1c(NS(=O)(=O)C(F)(F)F)cc(C(=O)N2CCC(F)(F)CC2)c(C)c1C	Condition not met
Cc1c(C(=O)N2CCCCC2)cc(N(COC(=O)C(C)(C)C)S(=O)(=O)C(F)(F)F)c(C)c1C	Condition not met

q: Would you kindly verify if Plant response rating, Ragweed of Cc1cc(C2CC2)c(C2=NOC3CCCC23)cc1NS(=O)(=O)C(F)(F)F (stereo not shown) is strictly less than 30?
a: Condition met

q: # TODO verify Plant response rating, Ragweed < 30 strictly for this compound: Cc1cc(C)c(N(S(=O)(=O)C(F)(F)F)S(=O)(=O)C(F)(F)F)cc1C1=NOC2COCC12 (stereo not shown)
a: Condition met

q: Is Plant response rating, Ragweed of Cc1cc(C)c(N(COC(=O)C(C)(C)C)S(=O)(=O)C(F)(F)F)cc1C(=O)N1CCC(c2ccccc2)CC1 strictly below 30?
a: Condition met

q: Does this compound meet the criterion Plant response rating, Ragweed < 30? Cc1cc(C)c(C2=NOC3(C)CCCC23)cc1NS(=O)(=O)C(F)(F)F (stereo not shown)
a: Condition not met

q: For this compound, is Plant response rating, Ragweed lower than 30? Cc1cc(C2CC2)c(NS(=O)(=O)C(F)(F)F)cc1C1=NOC2(CCCC2)C1
a: Condition met

----------
Tested on: Foxtail, Giant (giant foxtail, Setaria faberi)
TEST_NAME: Test A1 postemergence, Foxtail, Giant
Type: in vivo
STUDY_CONDITIONS: Postemergence, 31 g ai/ha; 0 to 100 scale (0 no effect, 100 complete control); 10 days
QUANTITY_NAME: Plant response rating, Foxtail, Giant
Form rule: numeric answer, no unit written next to it.

CCC1ON=C(c2cc(NS(=O)(=O)C(F)(F)F)c(C)cc2C)C1CC (centres unmarked) [Compound 346]	30
CCCCOC1CC(c2cc(NS(=O)(=O)C(F)(F)F)c(C)cc2C)=NO1 (centres unmarked)	10

q: What value of Plant response rating, Foxtail, Giant has been reported for the following compound? COc1cnn(-c2cc(NS(=O)(=O)C(F)(F)F)c(C)cc2C)c(=O)c1OC
a: 0

q: Given the compound Cc1c(NS(=O)(=O)C(F)(F)F)cc(C(=O)N2CCSCC2)c(C)c1C , what is its reported Plant response rating, Foxtail, Giant?
a: 80

q: Requested read-out: Plant response rating, Foxtail, Giant. Entry: Cc1cc(C)c(C2=NOC3OCCC23)cc1NS(=O)(=O)C(F)(F)F (centres unmarked)
a: 30

q: Requested read-out: Plant response rating, Foxtail, Giant. Entry: Cc1cc(F)c(NS(=O)(=O)C(F)(F)F)cc1C1=NOC2(CCCC2)C1
a: 30

q: Item Cc1cc(C)c(C2=NOC3COCC23)cc1NS(=O)(=O)C(F)(F)F (centres unmarked) has what recorded Plant response rating, Foxtail, Giant?
a: 10

q: Consider the compound Cc1cc(C)c(N(C(=O)OCC(C)C)S(=O)(=O)C(F)(F)F)cc1C1=NOC2CCCC12 (centres unmarked) and give its measured Plant response rating, Foxtail, Giant.
a: 0
